- assayed-target: angiopoietin-2 (Ang2) (UniProt O15123 O15123:19-496)
- Sequence (O15123 19-496, one chain of several): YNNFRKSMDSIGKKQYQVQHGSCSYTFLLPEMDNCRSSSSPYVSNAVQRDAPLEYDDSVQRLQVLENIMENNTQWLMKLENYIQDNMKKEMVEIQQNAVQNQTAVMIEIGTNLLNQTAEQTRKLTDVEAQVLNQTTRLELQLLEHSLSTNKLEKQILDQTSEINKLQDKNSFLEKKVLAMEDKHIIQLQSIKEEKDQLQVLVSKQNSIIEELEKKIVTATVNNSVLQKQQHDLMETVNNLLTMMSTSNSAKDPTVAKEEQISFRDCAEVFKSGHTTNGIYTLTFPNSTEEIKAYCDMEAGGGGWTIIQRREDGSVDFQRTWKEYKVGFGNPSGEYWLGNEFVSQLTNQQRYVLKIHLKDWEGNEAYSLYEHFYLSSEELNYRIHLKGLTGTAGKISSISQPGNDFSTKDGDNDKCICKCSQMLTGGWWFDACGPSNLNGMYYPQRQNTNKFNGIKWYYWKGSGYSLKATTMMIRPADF
pKd: −log10 of the molar value.
So I've got a bunch of binders here, and I need their pKd values.

Which pKd is listed for Ang2 aptamer 11-3 (ssRNA, 2'-F) RNA: GGGAGGACGAUGCGGUUAACCAUCAGCUCAUGGCCCCUGCCCUCUCAAGGACCACCAGACGACUCGCUGAGGAUCCGAGA ? ~8.00

Which pKd is listed for Ang2 aptamer 9-5 (ssRNA, 2'-F) RNA: GGGAGGACGAUGCGGCGAUCUUUUCGUCAACCGCACGUUGAACUCGGCUCGGCACCAGACGACUCGCUGAGGAUCCGAGA ? ~8.30
